# Blackgrass plant response rating per entry
- Test system: blackgrass
- Assay name: Test C preemergence
- Format: in vivo, Alopecurus myosuroides
- Recorded conditions: Test C, preemergence, 125 g ai/ha; 0 to 100 scale (0 no effect, 100 complete control)

{"Compound": "CCc1ncn(-c2ccc(OC)c(C(=S)N3C[C@H](C)Oc4c(C)cccc43)c2)n1 [Compound 271]", "Study target": "blackgrass", "Blackgrass plant response rating": 20}
{"Compound": "COC[C@H]1CN(C(=O)c2cc(-n3cnc(C4CCC4)n3)ccc2OC)c2cccc(Cl)c2O1 [Compound 236]", "Study target": "blackgrass", "Blackgrass plant response rating": 0}
{"Compound": "CC(C)c1ncn(-c2cc3c(c(C(=O)N4C[C@H](C)Oc5c(Cl)cccc54)c2)CCC3)n1 [Compound 174]", "Study target": "blackgrass", "Blackgrass plant response rating": 70}
{"Compound": "COc1ccc(-n2cncn2)cc1C(=O)N1C[C@H](C)Oc2ccccc21 [Compound 228]", "Study target": "blackgrass", "Blackgrass plant response rating": 80}
